fold change of affinity values, listed per item
Biological target: T1, Human CD3eg linker (human)
T1 construct: single-chain construct; also called recombinant human CD3
T1 chain: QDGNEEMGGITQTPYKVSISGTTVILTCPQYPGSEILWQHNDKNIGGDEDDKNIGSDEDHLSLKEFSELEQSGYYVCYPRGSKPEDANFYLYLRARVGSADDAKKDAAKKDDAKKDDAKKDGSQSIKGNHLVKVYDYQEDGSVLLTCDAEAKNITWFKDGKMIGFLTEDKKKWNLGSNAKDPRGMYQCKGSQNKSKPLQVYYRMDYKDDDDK
Assay: SPR, vs unmutated H183/L072
quantity.name: fold change of affinity

binder	quantity.name	result
dBBDu183H V95F/dBBDu072L (antibody, name in Kabat numbering, V domains shown) VH: QVQLVESGGGLVQPGRSLRLSCAASGFTFSNAWMHWVRQAPGKGLEWVAQIKDKGNAYAAYYAPSVKGRFTISRDDSKNSIYLQMNSLKTEDTAVYYCHYFHYASASTVLPAFGVDAWGQGTTVTVSS VL: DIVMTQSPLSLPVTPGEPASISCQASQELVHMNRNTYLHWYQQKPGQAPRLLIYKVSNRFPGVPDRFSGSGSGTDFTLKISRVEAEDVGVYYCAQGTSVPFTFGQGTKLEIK	fold change of affinity	0 fold
dBBDu183H A100V/dBBDu072L (antibody, name in Kabat numbering, V domains shown) VH: QVQLVESGGGLVQPGRSLRLSCAASGFTFSNAWMHWVRQAPGKGLEWVAQIKDKGNAYAAYYAPSVKGRFTISRDDSKNSIYLQMNSLKTEDTAVYYCHYVHYASVSTVLPAFGVDAWGQGTTVTVSS VL: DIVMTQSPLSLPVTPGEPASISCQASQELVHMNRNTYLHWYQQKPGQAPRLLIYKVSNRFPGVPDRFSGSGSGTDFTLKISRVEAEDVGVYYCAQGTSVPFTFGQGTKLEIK	fold change of affinity	1.2 fold
